Test: in vivo
Parameters: species or system mice
Conditions: mouse, iv, 3.4 MBq, total radioactivity, Biodistribution, Bone
Procedure: Blood and major organs were harvested immediately, weighed, and counted using a γ-counter. The radioactivity of each sample was calculated as the percentage of injected dose per gram of tissue (%ID/g) and corrected for radioactive decay.
measuredProperty: tissue uptake at 0.25 h (%ID/g)
Supply the numeric figure in %ID/g, leaving out any unit text.

[ask] Name the recorded tissue uptake at 0.25 h for CC(=O)NC(CCCCNC(=O)CN1CCN(CC(=O)O)CCN(CC(=O)O)CCN(CC(=O)O)CC1)C(=O)N1CCCC1C(=O)N(C)C(CCCNC(=N)N)C(=O)NC(CCCNC(=N)N)C(=O)N1CCCC1C(=O)NC(Cc1ccc(O)cc1)C(=O)NC(C(=O)NC(CC(C)C)C(=O)O)C(C)(C)C (stereo not shown) [^68Ga-DOTA-NT-20.3, metal not drawn] .
[reply] 2.35

---

assay: in vivo; set-up: species or system mice; conditions: mouse, iv, 3.4 MBq, total radioactivity, Biodistribution, Lung
measuredProperty: tissue uptake at 0.5 h (%ID/g)
Return type: number; implicit unit %ID/g.

[ask] Please report the recorded tissue uptake at 0.5 h for CC(=O)NC(CCCCNC(=O)CN1CCN(CC(=O)O)CCN(CC(=O)O)CCN(CC(=O)O)CC1)C(=O)N1CCCC1C(=O)N(C)C(CCCNC(=N)N)C(=O)NC(CCCNC(=N)N)C(=O)N1CCCC1C(=O)NC(Cc1ccc(O)cc1)C(=O)NC(C(=O)NC(CC(C)C)C(=O)O)C(C)(C)C (stereo not shown) [^68Ga-DOTA-NT-20.3, metal not drawn] .
[reply] 1.91
